Measured microsomal CLint accompanies every entry in the list below.
details: human; liver_microsomes
REPORTED_ENDPOINT: microsomal CLint

MOLECULE: O=C(Nc1cncc2ccccc12)C1CN(S(=O)(=O)CC2CNC2)Cc2ccc(Cl)cc21 (stereo not drawn)
RESULT: 10 µL/min/mg
//
MOLECULE: O=C(Nc1cncc2ccccc12)C1CCS(=O)(=O)c2ccc(Cl)cc21 (stereo not drawn)
RESULT: 10 µL/min/mg
//
MOLECULE: O=C(Nc1cncc2ccccc12)[C@@H]1CCNc2cc(Cl)c(Cl)cc21 (stereo in doubt)
RESULT: 40 µL/min/mg

* * *

details: rat; in vivo; po; 10.0 mg/kg
Recorded CL/F values for a group of compounds are listed next.

COMPOUND: O=C(Nc1cncc2ccccc12)[C@@H]1CCNc2cc(Cl)c(Cl)cc21 (stereo in doubt)
CL/F, mL/min/kg: 653
--
COMPOUND: O=C(Nc1cncc2ccccc12)C1CCS(=O)(=O)c2ccc(Cl)cc21 (configuration not stated)
CL/F, mL/min/kg: 11.9

* * *

target: SARS-CoV-2 Main Protease (SARS-CoV-2)
pIC50: −log10 of the molar value.

MOLECULE: CN(C)c1ccc(N(Cc2ccsc2)C(=O)Cn2nnc3ccccc32)cc1
TARGET_OR_SYSTEM: SARS-CoV-2 Main Protease (SARS-CoV-2)
BOUND_SIGN: =
pIC50: 5.75
//
MOLECULE: O=C(NC(c1ccccc1)c1ccccc1)[C@@H]1CN(C(=O)CCl)CCN1S(=O)(=O)c1ccsc1 (stereo in doubt)
TARGET_OR_SYSTEM: SARS-CoV-2 Main Protease (SARS-CoV-2)
BOUND_SIGN: =
pIC50: 6.20
//
MOLECULE: O=C1CCC(c2ccc(N(C(=O)c3cocn3)C(C(=O)NCCc3cccc(F)c3)c3cccnc3)cc2)N1 (centres undefined)
TARGET_OR_SYSTEM: SARS-CoV-2 Main Protease (SARS-CoV-2)
BOUND_SIGN: <
pIC50: 4.00
//
MOLECULE: Cc1ccncc1NC(=O)N(CCC1CCCCC1)c1cc(Cl)cc(OC(C)C)c1
TARGET_OR_SYSTEM: SARS-CoV-2 Main Protease (SARS-CoV-2)
BOUND_SIGN: =
pIC50: 4.61
//
MOLECULE: COc1ccccc1N1CCN(c2cc(Cl)cc(CC(=O)Nc3cncc4ccccc34)c2)CC1
TARGET_OR_SYSTEM: SARS-CoV-2 Main Protease (SARS-CoV-2)
BOUND_SIGN: =
pIC50: 5.53
//
MOLECULE: Cc1cc(=O)oc2cc(Nc3cc(Cl)cc(CC(=O)Nc4cncc5ccccc45)c3)ccc12
TARGET_OR_SYSTEM: SARS-CoV-2 Main Protease (SARS-CoV-2)
BOUND_SIGN: =
pIC50: 5.67
//
MOLECULE: Cc1ccncc1NC(=O)C1(c2cccc(Cl)c2)CC1
TARGET_OR_SYSTEM: SARS-CoV-2 Main Protease (SARS-CoV-2)
BOUND_SIGN: <
pIC50: 4.00
//
MOLECULE: O=C(NCc1ccccc1)[C@H]1CN(C(=O)CCl)CCN1S(=O)(=O)c1ccsc1 (stereo in doubt)
TARGET_OR_SYSTEM: SARS-CoV-2 Main Protease (SARS-CoV-2)
BOUND_SIGN: =
pIC50: 6.21
//
MOLECULE: Nc1cncc(NC(=O)C2CCOc3ccc(Cl)cc32)c1C1CC1 (centres undefined)
TARGET_OR_SYSTEM: SARS-CoV-2 Main Protease (SARS-CoV-2)
BOUND_SIGN: =
pIC50: 5.31

* * *

MOLECULE: O=C(Nc1cncc2cc(CO)ccc12)C1CCOc2ccc(Cl)cc21 (stereo not given)
logD: 2.2
//
MOLECULE: COc1ccc2cncc(NC(=O)C3(OC)CCOc4ccc(Cl)cc43)c2c1 (stereo not given)
logD: 3.4
//
MOLECULE: CN(C)C(=O)CNCC1(C(=O)Nc2cncc3ccccc23)CCOc2ccc(Cl)cc21 (stereo not given)
logD: 2.7
//
MOLECULE: CN1CCN(S(=O)(=O)N2Cc3ccc(Cl)cc3C(C(=O)Nc3cncc4ccccc34)C2)CC1 (stereo not given)
logD: 2.1
//
MOLECULE: CS(=O)(=O)N1Cc2ccc(Cl)cc2[C@H](C(=O)Nc2cncc3ccccc23)C1 (stereo in doubt)
logD: 2.2

* * *

Assay system SARS-CoV-2 Main Protease (SARS-CoV-2) (UniProt P0DTD1); read-out recorded as pIC50.
pIC50: −log10 of the molar value.

COMPOUND: CCN(CC)CCOc1ccc2cncc(N3CCC4(CN(S(=O)(=O)CC5(C#N)CC5)Cc5ccc(Cl)cc54)C3=O)c2c1 (stereo not given)
BOUND_SIGN: =
pIC50: 6.74
--
COMPOUND: CNS(=O)(=O)N1Cc2ccc(Cl)cc2C(C(=O)Nc2cncc3ccccc23)C1 (stereo not given)
BOUND_SIGN: =
pIC50: 6.83
--
COMPOUND: CC(C)(C)c1ccc(N(C(=O)c2ccco2)C(C(=O)NCc2ccccc2)c2cccnc2)cc1 (stereo not given)
BOUND_SIGN: =
pIC50: 5.36
--
COMPOUND: CC1CCNC(=O)C1NC(=O)Cc1cccc(Cl)c1 (stereo not given)
BOUND_SIGN: =
pIC50: 4.36
--
COMPOUND: Cn1cc(C(C(=O)NCCc2cccc(F)c2)N(C(=O)c2cocn2)c2ccc(C(C)(C)C)cc2)ccc1=O (stereo not given)
BOUND_SIGN: <
pIC50: 4.00

* * *

pIC50: −log10 of the molar value.
Let's go through some recorded pIC50 values for SARS-CoV-2 Main Protease (SARS-CoV-2) together.

MOLECULE: CCOC(=O)c1ncoc1CNC(=O)C(c1cccnc1)N(C(=O)c1cocn1)c1ccc(C(C)(C)C)cc1 (stereo not given)
BOUND_SIGN: =
pIC50: 5.23
--
MOLECULE: O=C(CN(C(=O)Cn1nnc2ccccc21)c1ccc(-c2ccccc2)cc1)N1CCNCC1
BOUND_SIGN: <
pIC50: 4.00
--
MOLECULE: CC(C)CS(=O)(=O)N1Cc2ccc(Cl)cc2C(C(=O)Nc2cncc3ccc(C(C)(C)O)cc23)C1 (stereo not given)
BOUND_SIGN: =
pIC50: 5.91
--
MOLECULE: CCOC(=O)c1c(C)n(S(C)(=O)=O)c2ccc(N(C(=O)c3ccco3)S(C)(=O)=O)cc12
BOUND_SIGN: =
pIC50: 6.55
--
MOLECULE: CNC(=O)N1Cc2ccc(Cl)cc2C(C(=O)Nc2cncc3ccccc23)C1 (stereo not given)
BOUND_SIGN: =
pIC50: 6.57

* * *

Target or system SARS-CoV-2 Main Protease (SARS-CoV-2): recorded pIC50 listed per item.
pIC50: −log10 of the molar value.

MOLECULE: O=C(Cc1ccc(C(F)(F)F)cc1)Nc1cncc2ccccc12
BOUND_SIGN: =
pIC50: 4.61
//
MOLECULE: NC(=O)C1Cc2ccccc2CN1CC(=O)N1CCN(c2ncccn2)CC1 (centres undefined)
BOUND_SIGN: <
pIC50: 4.00
//
MOLECULE: N#CC1(CS(=O)(=O)N2Cc3ccc(Cl)cc3C3(CCN(c4cncc5ccccc45)C3=O)C2)CCC1 (centres undefined)
BOUND_SIGN: =
pIC50: 6.58
//
MOLECULE: COc1ccc2cncc(NC(=O)[C@@H]3CCNc4cc(Cl)c(Cl)cc43)c2c1 (stereo in doubt)
BOUND_SIGN: =
pIC50: 4.57
//
MOLECULE: CN(C)C(=O)COCC1(C(=O)Nc2cncc3ccccc23)CCOc2ccc(Cl)cc21 (centres undefined)
BOUND_SIGN: =
pIC50: 6.19
//
MOLECULE: COc1ccc(CNCC2(C(=O)Nc3cncc4ccccc34)CCOc3ccc(Cl)cc32)cc1OCC(N)=O (centres undefined)
BOUND_SIGN: =
pIC50: 4.94
//
MOLECULE: O=S(=O)(Nc1ccccc1)c1cc2c(cc1OCc1ccccc1)OCO2
BOUND_SIGN: =
pIC50: 4.14
//
MOLECULE: CC1(CS(=O)(=O)N2Cc3ccc(Cl)cc3C3(CCN(c4cncc5ccccc45)C3=O)C2)CS(=O)(=O)C1 (centres undefined)
BOUND_SIGN: =
pIC50: 6.84
//
MOLECULE: Cc1c(Nc2cc(Cl)cc(CC(=O)Nc3cncc4ccccc34)c2)c(=O)n(-c2ccccc2)n1C
BOUND_SIGN: =
pIC50: 5.47

The reported numbers originate from the COVID Moonshot data (paper PMC7615835).
